# run.description: Growth inhibition of human Caki1 cells at 10 uM after 48 hrs by SRB assay relative to control
# Format: functional
# experimental.context: CAKI-1, 48 h, read-out: GI
quantity.kind: inhibition of growth at 10 µM (%)

{"columns": ["chem.smiles", "quantity.kind", "quantitative.result"],
 "data": [
  ["COc1ccccc1-n1c(SCc2cc(OC)c(OC)c(OC)c2)nc2ccc(Cl)cc2c1=O", "inhibition of growth at 10 µM", 57.4],
  ["COc1cc2nc(SCc3cc(OC)c(OC)c(OC)c3)n(Cc3ccccc3)c(=O)c2cc1OC", "inhibition of growth at 10 µM", 74.3],
  ["COc1ccc(-n2c(SCc3cc(OC)c(OC)c(OC)c3)nc3ccc(C)cc3c2=O)cc1", "inhibition of growth at 10 µM", 45.8],
  ["COc1cc(CSc2nc3ccc(C)cc3c(=O)n2-c2ccccc2)cc(OC)c1OC", "inhibition of growth at 10 µM", 72.4],
  ["COc1cc(CSc2nc3ccc(C)cc3c(=O)n2Cc2ccccc2)cc(OC)c1OC", "inhibition of growth at 10 µM", 71.3],
  ["COc1cc2nc(SCc3cc(OC)c(OC)c(OC)c3)n(-c3ccccc3OC)c(=O)c2cc1OC", "inhibition of growth at 10 µM", 57.1],
  ["COc1cc(CSc2nc3ccc(Cl)cc3c(=O)n2Cc2ccccc2)cc(OC)c1OC", "inhibition of growth at 10 µM", 73.3],
  ["COc1ccc(-n2c(SCc3cc(OC)c(OC)c(OC)c3)nc3ccc(Cl)cc3c2=O)cc1", "inhibition of growth at 10 µM", 33],
  ["COc1ccc(-n2c(SCc3cc(OC)c(OC)c(OC)c3)nc3ccc(C)cc3c2=O)c(OC)c1", "inhibition of growth at 10 µM", 86.7],
  ["COc1cc(CSc2nc3ccc(Cl)cc3c(=O)n2-c2ccccc2)cc(OC)c1OC", "inhibition of growth at 10 µM", 26.1],
  ["COc1ccc(CSc2nc3cc(OC)c(OC)cc3c(=O)n2-c2ccc(OC)cc2OC)cc1", "inhibition of growth at 10 µM", 31.3]
]}

###

# run.description: Growth inhibition of human Hs 578T cells at 10 uM after 48 hrs by SRB assay relative to control
# Assay type: functional
# experimental.context: read-out: GI
quantity.kind: inhibition of growth at 10 µM (%)

{"columns": ["chem.smiles", "modifier.sign", "quantitative.result"],
 "data": [
  ["COc1ccccc1-n1c(SCc2cc(OC)c(OC)c(OC)c2)nc2ccc(Cl)cc2c1=O", "=", 60.4],
  ["COc1ccc(CSc2nc3cc(OC)c(OC)cc3c(=O)n2-c2ccc(OC)cc2OC)cc1", "=", 13.3],
  ["COc1ccc(-n2c(SCc3cc(OC)c(OC)c(OC)c3)nc3ccc(Cl)cc3c2=O)cc1", "=", 13.9],
  ["COc1cc(CSc2nc3ccc(C)cc3c(=O)n2-c2ccccc2)cc(OC)c1OC", "=", 71.8],
  ["COc1ccc(-n2c(SCc3cc(OC)c(OC)c(OC)c3)nc3ccc(C)cc3c2=O)cc1", "=", 22.3],
  ["COc1cc(CSc2nc3ccc(Cl)cc3c(=O)n2-c2ccccc2)cc(OC)c1OC", "<", 10],
  ["COc1cc(CSc2nc3ccc(C)cc3c(=O)n2Cc2ccccc2)cc(OC)c1OC", "=", 79.3],
  ["COc1cc2nc(SCc3cc(OC)c(OC)c(OC)c3)n(Cc3ccccc3)c(=O)c2cc1OC", "=", 73.3],
  ["COc1ccc(-n2c(SCc3cc(OC)c(OC)c(OC)c3)nc3ccc(C)cc3c2=O)c(OC)c1", "=", 93.3],
  ["COc1cc(CSc2nc3ccc(Cl)cc3c(=O)n2Cc2ccccc2)cc(OC)c1OC", "=", 69.5],
  ["COc1cc2nc(SCc3cc(OC)c(OC)c(OC)c3)n(-c3ccccc3OC)c(=O)c2cc1OC", "=", 39.2]
]}

All figures here come from ChEMBL document CHEMBL3860041.
